Form field: mass density (one value per entry).
CONDITIONS: 393.15 K; 4000 kPa; Liquid; Vibrating tube method
± gives the expanded uncertainty stated by the source.

See these solved cases before continuing.
COMPOUND	mass density
CCC[N+]1(C)CCCC1.O=S(=O)([N-]S(=O)(=O)C(F)(F)F)C(F)(F)F	1346.8 ± 12 kg/m3
CCCC[N+]1(C)CCCC1.O=S(=O)([N-]S(=O)(=O)C(F)(F)F)C(F)(F)F	1319.1 ± 12 kg/m3
CCC[n+]1cccc(C)c1.O=S(=O)([N-]S(=O)(=O)C(F)(F)F)C(F)(F)F	1359 ± 12 kg/m3
CCn1cc[n+](C)c1.O=S(=O)([O-])C(F)(F)F [1-ethyl-3-methylimidazolium trifluoromethanesulfonate]	1293.9 ± 12 kg/m3

Moving on to the next compound.
# input compound: "CCC[N+]1(C)CCCCC1.O=S(=O)([N-]S(=O)(=O)C(F)(F)F)C(F)(F)F" ; wanted: its mass density
1326.2 ± 12 kg/m3

###

CONDITIONS: 323.15 K; 5000 kPa; Liquid; Vibrating tube method
READOUT_NAME: mass density (kg/m3)
Numbers only here, please. The scale is kg/m3.

COMPOUND	mass density / kg/m3
CCCC[N+]1(C)CCCC1.O=S(=O)([N-]S(=O)(=O)C(F)(F)F)C(F)(F)F	1383.6
CCC[N+]1(C)CCCC1.O=S(=O)([N-]S(=O)(=O)C(F)(F)F)C(F)(F)F	1412.6
CCn1cc[n+](C)c1.O=S(=O)([O-])C(F)(F)F [1-ethyl-3-methylimidazolium trifluoromethanesulfonate]	1355.1
CCC[n+]1cccc(C)c1.O=S(=O)([N-]S(=O)(=O)C(F)(F)F)C(F)(F)F	1427.8

Query (compound): "CCC[N+]1(C)CCCCC1.O=S(=O)([N-]S(=O)(=O)C(F)(F)F)C(F)(F)F" ; field requested: mass density
1391.4

###

CONDITIONS: 313.15 K; 10000 kPa; Liquid; Vibrating tube method
Entries and their mass density values follow.
I only need the number, in kg/m3, no unit after it.

COMPOUND	NUMBER
CCC[N+]1(C)CCCC1.O=S(=O)([N-]S(=O)(=O)C(F)(F)F)C(F)(F)F	1426.3
CCn1cc[n+](C)c1.O=S(=O)([O-])C(F)(F)F [1-ethyl-3-methylimidazolium trifluoromethanesulfonate]	1367.3
CCC[n+]1cccc(C)c1.O=S(=O)([N-]S(=O)(=O)C(F)(F)F)C(F)(F)F	1441.9
CCCC[N+]1(C)CCCC1.O=S(=O)([N-]S(=O)(=O)C(F)(F)F)C(F)(F)F	1397

Lab note: next compound to report on.
Quick one: mass density for "CCC[N+]1(C)CCCCC1.O=S(=O)([N-]S(=O)(=O)C(F)(F)F)C(F)(F)F" ?
1404.7

###

CONDITIONS: 313.15 K; 35000 kPa; Liquid; Vibrating tube method
Numbers after ± are expanded uncertainties.
READOUT_NAME: mass density

Solved entries (count: 4):
MOLECULE	mass density
CCn1cc[n+](C)c1.O=S(=O)([O-])C(F)(F)F [1-ethyl-3-methylimidazolium trifluoromethanesulfonate]	1381.6 ± 12 kg/m3
CCC[n+]1cccc(C)c1.O=S(=O)([N-]S(=O)(=O)C(F)(F)F)C(F)(F)F	1460.3 ± 12 kg/m3
CCCC[N+]1(C)CCCC1.O=S(=O)([N-]S(=O)(=O)C(F)(F)F)C(F)(F)F	1414.4 ± 12 kg/m3
CCC[N+]1(C)CCCCC1.O=S(=O)([N-]S(=O)(=O)C(F)(F)F)C(F)(F)F	1421.7 ± 12 kg/m3

Turning now to a further record.
Requested read-out: mass density. Entry: "CCC[N+]1(C)CCCC1.O=S(=O)([N-]S(=O)(=O)C(F)(F)F)C(F)(F)F"
1443.6 ± 12 kg/m3

###

CONDITIONS: 293.15 K; 5000 kPa; Liquid; Vibrating tube method
READOUT_NAME: mass density (kg/m3)
Quick note: give the figure in kg/m3, leave out the unit.

Check out these entries, answers already filled in.
MOLECULE	UNIT_OF_MEASUREMENT	mass density
CCC[n+]1cccc(C)c1.O=S(=O)([N-]S(=O)(=O)C(F)(F)F)C(F)(F)F	kg/m3	1458.7
CCn1cc[n+](C)c1.O=S(=O)([O-])C(F)(F)F [1-ethyl-3-methylimidazolium trifluoromethanesulfonate]	kg/m3	1382.5
CCCC[N+]1(C)CCCC1.O=S(=O)([N-]S(=O)(=O)C(F)(F)F)C(F)(F)F	kg/m3	1412.6

Can you share its mass density? I mean this molecule: "CCC[N+]1(C)CCCCC1.O=S(=O)([N-]S(=O)(=O)C(F)(F)F)C(F)(F)F"
1420.3

Which value of mass density has been reported for "CCC[N+]1(C)CCCC1.O=S(=O)([N-]S(=O)(=O)C(F)(F)F)C(F)(F)F" in the records?
1442.1

###

CONDITIONS: 303.15 K; 20000 kPa; Liquid; Vibrating tube method
READOUT_NAME: mass density (kg/m3)
Enter your answer as a number in kg/m3; do not include the unit.

Check out these entries, answers already filled in.
COMPOUND	READOUT_NAME	NUMBER
CCC[n+]1cccc(C)c1.O=S(=O)([N-]S(=O)(=O)C(F)(F)F)C(F)(F)F	mass density	1459.6
CCn1cc[n+](C)c1.O=S(=O)([O-])C(F)(F)F [1-ethyl-3-methylimidazolium trifluoromethanesulfonate]	mass density	1381.9

Name the recorded mass density for "CCC[N+]1(C)CCCCC1.O=S(=O)([N-]S(=O)(=O)C(F)(F)F)C(F)(F)F" .
1421.1

Could you tell me which mass density is on file for "CCC[N+]1(C)CCCC1.O=S(=O)([N-]S(=O)(=O)C(F)(F)F)C(F)(F)F" ?
1443

Param item = "CCCC[N+]1(C)CCCC1.O=S(=O)([N-]S(=O)(=O)C(F)(F)F)C(F)(F)F" ; retrieve measured mass density.
1413.6

###

CONDITIONS: 323.15 K; 30000 kPa; Liquid; Vibrating tube method
READOUT_NAME: mass density (kg/m3)
Give your result in kg/m3 as a bare value.

Look over these answered cases.
COMPOUND	mass density, kg/m3
CCn1cc[n+](C)c1.O=S(=O)([O-])C(F)(F)F [1-ethyl-3-methylimidazolium trifluoromethanesulfonate]	1370.1
CCCC[N+]1(C)CCCC1.O=S(=O)([N-]S(=O)(=O)C(F)(F)F)C(F)(F)F	1402
CCC[n+]1cccc(C)c1.O=S(=O)([N-]S(=O)(=O)C(F)(F)F)C(F)(F)F	1446.9
CCC[N+]1(C)CCCC1.O=S(=O)([N-]S(=O)(=O)C(F)(F)F)C(F)(F)F	1431

Next:
Give its mass density value. Item: "CCC[N+]1(C)CCCCC1.O=S(=O)([N-]S(=O)(=O)C(F)(F)F)C(F)(F)F"
1408.6

###

Recorded mass density by entry
CONDITIONS: 353.15 K; 10000 kPa; Liquid; Vibrating tube method
Response body: numeric value in kg/m3, unit text excluded.

Illustrative cases are given below, each with its answer.
COMPOUND	READOUT_NAME	NUMBER
CCC[n+]1cccc(C)c1.O=S(=O)([N-]S(=O)(=O)C(F)(F)F)C(F)(F)F	mass density	1402.5
CCCC[N+]1(C)CCCC1.O=S(=O)([N-]S(=O)(=O)C(F)(F)F)C(F)(F)F	mass density	1360
CCC[N+]1(C)CCCC1.O=S(=O)([N-]S(=O)(=O)C(F)(F)F)C(F)(F)F	mass density	1388.5
CCn1cc[n+](C)c1.O=S(=O)([O-])C(F)(F)F [1-ethyl-3-methylimidazolium trifluoromethanesulfonate]	mass density	1332

# input for lookup
Which mass density value belongs to "CCC[N+]1(C)CCCCC1.O=S(=O)([N-]S(=O)(=O)C(F)(F)F)C(F)(F)F" ?
1366.7

###

CONDITIONS: 323.15 K; 7500 kPa; Liquid; Vibrating tube method
READOUT_NAME: mass density (kg/m3)
Only the number, expressed in kg/m3, is required.

COMPOUND	mass density [kg/m3]
CCC[N+]1(C)CCCCC1.O=S(=O)([N-]S(=O)(=O)C(F)(F)F)C(F)(F)F	1393.2
CCC[n+]1cccc(C)c1.O=S(=O)([N-]S(=O)(=O)C(F)(F)F)C(F)(F)F	1429.9
CCn1cc[n+](C)c1.O=S(=O)([O-])C(F)(F)F [1-ethyl-3-methylimidazolium trifluoromethanesulfonate]	1356.7
CCCC[N+]1(C)CCCC1.O=S(=O)([N-]S(=O)(=O)C(F)(F)F)C(F)(F)F	1385.6

Form field: reported mass density of "CCC[N+]1(C)CCCC1.O=S(=O)([N-]S(=O)(=O)C(F)(F)F)C(F)(F)F"
1414.4
